molecular target: T1, human IL-8 (human, UniProt P10145 23-99, limits assumed); assay: SPR Biacore T200, Protein A/G capture, pH 5.8, 37C;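 note: antibodies captured by Protein A/G amine-coupled onto a CM4 sensor chip, with kinetic parameters derived using Biacore T200 Evaluation Software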
T1 construct: also called hIL-8; hIL8
T1 sequence (P10145 23-99 limits assumed): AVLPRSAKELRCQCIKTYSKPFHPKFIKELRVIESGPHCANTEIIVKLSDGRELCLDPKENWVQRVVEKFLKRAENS
# Kd values compiled below

Binder	Kd (nM)
H1048/L0442 (antibody, human IgG1, kappa, name in Kabat numbering, V domains shown, L442 = L395 + S31E) VH: QVQLVESGGGLVQPGGSLRLSCAASGFTFSEYYLSWVRQAPGKGLEWVGLIRNKDNGYTPEYSASVKGRFTISRDDSKNSLYLTMSDLKTEDTAVYYCARENHRYDVELAYWGQGTLVTVSS VL: DIQMTQSPSSLSASVGDRVTITCRASEIIYEYLAWYQQKPGKAPKLLIYKAKTHADGVPSRFSGSGSGTDFTFTISSLQPEDIATYYCKHHFGFPRTFGQGTKVEIKR	67
H1050/L0442 (antibody, human IgG1, kappa, name in Kabat numbering, V domains shown, L442 = L395 + S31E) VH: QVQLVESGGGLVQPGGSLRLSCAASGFTFSEYYLSWVRQAPGKGLEWVGLIRNKDNYHTPEYSASVKGRFTISRDDSKNSLYLTMSDLKTEDTAVYYCARENHRYDVELAYWGQGTLVTVSS VL: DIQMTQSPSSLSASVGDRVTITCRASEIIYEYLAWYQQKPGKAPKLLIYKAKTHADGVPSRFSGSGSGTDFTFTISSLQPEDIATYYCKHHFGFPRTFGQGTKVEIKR	54
